fraction ligated by entry:
B1: minF1; a variant is named by its letters at N, in order (parent)
chain: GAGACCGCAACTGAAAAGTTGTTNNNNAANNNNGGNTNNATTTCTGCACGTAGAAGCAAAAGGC

variants of: B1; assay: fraction ligated after 30 min (ligated reads / total reads); higher = more ligase activity; details: with F1*subA RNA substrate (template-directed ligation), 42 °C
Reply with the value as a number alone.

>>> observed("AGAAGATGTGA T23A A29G")
0.00362

Now take the following variant into account.
Enquiry: Entry CAGATGGTGTA T23A has what fraction ligated?
Return: 0.00242
